SUBJECT_OF_TEST: catalytic kinase (JH1) domain of human JAK1 (Homo sapiens)
Construct: 4 nM of recombinant JAK1 kinase domain is used to phosphorylate
Sequence (P23458 875-1153 limits assumed): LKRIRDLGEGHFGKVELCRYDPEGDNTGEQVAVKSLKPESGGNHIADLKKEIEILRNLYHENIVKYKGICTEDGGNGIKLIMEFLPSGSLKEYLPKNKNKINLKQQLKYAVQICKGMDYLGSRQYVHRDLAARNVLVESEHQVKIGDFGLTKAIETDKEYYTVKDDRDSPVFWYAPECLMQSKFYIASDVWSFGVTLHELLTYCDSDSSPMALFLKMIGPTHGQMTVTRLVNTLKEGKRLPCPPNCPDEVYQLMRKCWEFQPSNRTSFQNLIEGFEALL
EXPERIMENT_NOTES: ADP-Glo kinase assay, JAK1 kinase domain
Format: biochemical
Procedure: As summarized in Table 3 below, compounds of the disclosure were assessed for their ability to inhibit TYK2, JAK1, JAK2, and JAK3 activity. The kinase activity of recombinantly generated catalytic kinase (also known as JH1) domain of human JAK1, JAK2, JAK3 and TYK2 were evaluated in a plate-based assay using the ADP-Glo™ Kinase Assay platform. […]
RESULT_TYPE: IC50 (µM)
Give the number; µM is assumed, so skip it.

A selection of reference data follows.
* COc1cc(-c2cc3c(N4CC5CCC(C4)N5[C@H]4C[C@H](C#N)C4)ccnc3[nH]2)ccn1 | 0.0137
* Cn1cc(-c2cc3c(N4CC5CCC(C4)N5[C@H]4C[C@H](S(C)(=O)=O)C4)ccnn3c2)cn1 | 4.3
* Cc1cc(-c2cc3c(N4CC5CCC(C4)N5[C@H]4C[C@@H](C#N)C4)ccnn3c2)on1 | 0.0655
* COc1cc(-c2cc3c(N4CC5CCC(C4)N5[C@H]4C[C@@H](C#N)C4)ccnc3[nH]2)ccn1 | 0.205
* Cn1cc(-c2cc3c(N4CC5CCC(C4)N5[C@H]4C[C@@H](C#N)C4(C)C)ccnn3c2)cn1 (single isomer, unassigned) | 0.0723
* Cn1cc(-c2cc3c(N4CC5CCC(C4)N5C4CCC4)ccnn3c2)cn1 | 6.1

Now for another entry.
Data request: What IC50 value was documented for this compound, Cn1cc(-c2cc3c(N4CC5CCC(C4)N5[C@@H]4C[C@H](C#N)C4(C)C)ccnn3c2)cn1 (single isomer, unassigned) ?
Data returned: 0.925

---

SUBJECT_OF_TEST: catalytic kinase (JH1) domain of human TYK2 (Homo sapiens, UniProt P29597)
Construct: recombinantly generated catalytic kinase (also known as JH1) domain of human JAK1, JAK2, JAK3 and TYK2
Sequence (P29597 897-1176 limits assumed): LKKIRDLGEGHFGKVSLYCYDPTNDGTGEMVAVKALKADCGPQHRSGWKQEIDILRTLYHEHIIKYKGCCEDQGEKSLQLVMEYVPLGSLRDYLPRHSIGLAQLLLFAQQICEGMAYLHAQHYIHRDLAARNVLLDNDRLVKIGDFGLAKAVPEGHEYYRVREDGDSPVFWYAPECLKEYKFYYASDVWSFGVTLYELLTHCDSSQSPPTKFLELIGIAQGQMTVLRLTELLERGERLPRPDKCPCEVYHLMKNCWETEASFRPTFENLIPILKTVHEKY
EXPERIMENT_NOTES: ADP-Glo kinase assay, TYK2 kinase domain
Format: biochemical
TEST_PARAMETERS: 2 nM recombinant TYK2 kinase domain, 50 μM JAK3-974 peptide, 10 μM ATP, 100 minutes; read-out: TYK2 biochem IC50 (nM) Mean
Measured log10 IC50, listed per entry.
Quick note: numbers are log10 of IC50, with nM as the unit.

A selection of reference data follows.
- Cn1cc(-c2cc3c(N4CC5CCC(C4)N5[C@H]4CC[C@H]4O)ccnn3c2)cn1 (racemic): 2.70
- COCC[C@]1(C#N)C[C@H](N2C3CCC2CN(c2ccnn4cc(-c5cnn(C)c5)cc24)C3)C1: 2.27
- Cn1cc(-c2nc3c(N4C[C@H]5CC[C@@H](C4)N5C4CC(C(F)F)C4)ccnc3[nH]2)cn1 (stereo partly shown): 2.35
- Cn1cc(-c2cc3c(N4CC5CCC(C4)N5[C@H]4CC[C@@H]4O)ccnn3c2)cn1 (racemic): 2.63

Data request: What log10 IC50 value was documented for this compound, `Cn1cc(-c2cc3c(N4CC5CCC(C4)N5[C@H]4C[C@H](C#N)C4)ncnc3[nH]2)cn1` ?
Data returned: 2.41

Data request: What log10 IC50 value was documented for this compound, `Cn1cc(-c2cc3c(N4CC5CCC(C4)N5[C@H]4C[C@@](C)(C#N)C4)ccnn3c2)cn1` ?
Data returned: 0.67

Data request: What log10 IC50 value was documented for this compound, `Cn1cc(-c2cc3c(N4CC5CCC(C4)N5[C@H]4C[C@@H](CC#N)C4)ccnn3c2)cn1` ?
Data returned: 1.91

These data points were gathered from patent US20250387400A1.
